- method: Pharmacokinetic analysis, brain and plasma concentration after single oral administration
- Type: in vivo
- condition: ICR, mouse, brain and plasma, 0.8 mg/kg, normal mice, highest dose group, read-out: brain/plasma exposure ratio (AUC)
observable: Kp

smiles=CC(=O)Nc1cccc(-n2c(=O)n(C3CC3)c(=O)c3c(Nc4ccc(I)cc4F)n(C)c(=O)c(C)c32)c1 observed=0.477
